system.under.test: α4β7 integrin (Homo sapiens (Human), UniProt P13612+P26010)
Sequence (P13612 34-1032): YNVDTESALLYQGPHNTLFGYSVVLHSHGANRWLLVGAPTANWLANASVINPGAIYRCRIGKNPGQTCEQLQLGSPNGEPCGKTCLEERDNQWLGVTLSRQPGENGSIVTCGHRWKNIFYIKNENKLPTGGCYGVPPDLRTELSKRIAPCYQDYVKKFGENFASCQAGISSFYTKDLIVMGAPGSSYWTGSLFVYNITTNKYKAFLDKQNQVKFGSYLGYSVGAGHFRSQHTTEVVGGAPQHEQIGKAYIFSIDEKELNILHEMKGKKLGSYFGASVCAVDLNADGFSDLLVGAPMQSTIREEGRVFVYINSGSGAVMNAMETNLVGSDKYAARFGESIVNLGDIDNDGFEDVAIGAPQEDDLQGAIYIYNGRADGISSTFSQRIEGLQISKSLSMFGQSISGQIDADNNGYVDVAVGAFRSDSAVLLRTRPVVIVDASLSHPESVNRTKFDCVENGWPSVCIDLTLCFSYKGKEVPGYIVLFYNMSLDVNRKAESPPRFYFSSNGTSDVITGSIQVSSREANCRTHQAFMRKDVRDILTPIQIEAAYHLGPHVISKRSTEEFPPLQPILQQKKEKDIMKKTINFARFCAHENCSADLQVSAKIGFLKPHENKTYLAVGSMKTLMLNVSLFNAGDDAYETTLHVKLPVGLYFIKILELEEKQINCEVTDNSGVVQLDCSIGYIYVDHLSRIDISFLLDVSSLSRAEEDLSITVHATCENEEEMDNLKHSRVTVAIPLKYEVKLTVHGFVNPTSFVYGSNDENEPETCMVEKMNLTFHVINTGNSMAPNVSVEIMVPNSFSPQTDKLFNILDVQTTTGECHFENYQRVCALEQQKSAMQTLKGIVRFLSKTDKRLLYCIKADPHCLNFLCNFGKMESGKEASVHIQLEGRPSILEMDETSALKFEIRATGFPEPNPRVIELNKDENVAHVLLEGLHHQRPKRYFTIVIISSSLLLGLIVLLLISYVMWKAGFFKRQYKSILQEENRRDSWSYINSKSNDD
Sequence (P26010 20-798): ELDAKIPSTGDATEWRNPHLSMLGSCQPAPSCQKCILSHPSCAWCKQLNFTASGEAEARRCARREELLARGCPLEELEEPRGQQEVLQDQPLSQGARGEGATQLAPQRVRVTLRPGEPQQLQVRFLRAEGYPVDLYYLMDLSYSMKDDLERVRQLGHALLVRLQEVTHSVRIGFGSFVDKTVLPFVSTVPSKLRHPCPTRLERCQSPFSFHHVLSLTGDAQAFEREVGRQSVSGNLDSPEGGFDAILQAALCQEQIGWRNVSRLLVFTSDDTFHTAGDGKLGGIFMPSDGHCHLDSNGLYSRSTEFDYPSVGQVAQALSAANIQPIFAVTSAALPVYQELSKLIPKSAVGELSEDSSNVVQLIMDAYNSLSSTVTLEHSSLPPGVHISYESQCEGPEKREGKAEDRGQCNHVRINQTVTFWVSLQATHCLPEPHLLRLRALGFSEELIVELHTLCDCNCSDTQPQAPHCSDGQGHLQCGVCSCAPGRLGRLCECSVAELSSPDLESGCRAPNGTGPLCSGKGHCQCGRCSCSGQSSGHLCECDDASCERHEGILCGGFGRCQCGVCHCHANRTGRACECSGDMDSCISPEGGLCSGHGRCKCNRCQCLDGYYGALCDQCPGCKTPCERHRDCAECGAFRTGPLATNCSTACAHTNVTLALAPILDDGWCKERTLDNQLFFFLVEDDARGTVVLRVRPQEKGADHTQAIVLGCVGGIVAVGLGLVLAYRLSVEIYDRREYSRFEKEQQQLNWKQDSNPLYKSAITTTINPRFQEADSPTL
measurement.notes: α4β7 Integrin Cell Capture Assay
Type: cell-based
protocol.conditions: RPMI8866 cells captured on MadCAM-1 extracellular domain-coated plate
result.type: EC50 (nM)

Please review the following examples before continuing.
• Cc1cc2c(=O)n(-c3ccc(C[C@H](NC(=O)c4c(C)cc(N5CCOC[C@@H]5C(F)(F)F)cc4F)C(=O)O)c4cccnc34)c(=O)n(C)c2cn1 = 0.185
• Cc1cc(N2CCOC[C@@H]2C(F)(F)F)cc(F)c1C(=O)N[C@@H](Cc1ccc(-n2c(=O)c3c(n(C)c2=O)COCC3)c2ncccc12)C(=O)O = 0.06
• Cc1cc(N2CCOC[C@@H]2C(F)(F)F)cc(F)c1C(=O)N[C@@H](Cc1ccc(-n2c(=O)c3nccnc3n(C)c2=O)c2ncccc12)C(=O)O = 0.1
• CC[C@@H](Nc1cc(F)c(C(=O)N[C@@H](Cc2ccc(-c3cc(OC)cn(C)c3=O)c3ncccc23)C(=O)O)c(F)c1)C(F)(F)F = 1.48

[A] Cc1cc(C(F)(F)F)c(-c2ccc(C[C@H](NC(=O)c3c(F)cc(N4CCC[C@@H]4C(F)(F)F)cc3F)C(=O)O)c3cccnc23)c(=O)n1C (atropisomer, axis not shown)
[B] Cc1cc(N2CCOC[C@@H]2C(F)(F)F)cc(F)c1C(=O)N[C@@H](Cc1ccc(-n2c(=O)c3ccc(F)cc3n(C)c2=O)c2ncccc12)C(=O)O
Task item: For A and B , which recorded EC50 is lower? API: response body contains the label of the selected item.
Reply: B

---

system.under.test: α4β7 integrin (Homo sapiens (Human), UniProt P13612+P26010)
measurement.notes: α4β7 Integrin Cell Capture Assay
Type: cell-based
protocol.conditions: Table 2; capture of α4β7 expressing RPM18866 cells on MadCAM-1 extracellular domain-coated plate
pEC50: −log10 of the molar value.
result.type: pEC50

* COc1cc(F)c(C(F)(F)F)cc1-c1ccc(C[C@H](NC(=O)c2c(F)cccc2F)C(=O)O)c2cccnc12 [Example 215] | 7.54
* Cc1cc(C(F)(F)F)c(-c2ccc(C[C@H](NC(=O)c3c(F)cc(N4CCOC[C@@H]4C)cc3F)C(=O)O)c3cccnc23)c(=O)n1C [Example 180] | 9.05
* Cc1cc(C(F)(F)F)c(-c2ccc(C[C@H](NC(=O)c3c(F)cc(N4CCOC[C@@H]4C(F)(F)F)cc3F)C(=O)O)c3cc(F)cnc23)c(=O)n1C [Example 159] | 9.52
* N#Cc1ccc(-c2ccc(C[C@H](NC(=O)c3c(F)cccc3OC(F)F)C(=O)O)c3cccnc23)c(Cl)c1 [Example 222] | 7.32
* Cc1cc(C(F)(F)F)c(-c2ccc(C[C@H](NC(=O)c3c(F)cc(N4CC[C@H]4C(F)(F)F)cc3F)C(=O)O)c3cccnc23)c(=O)n1C [Example 298] | 8.10

[A] Cc1cc(C(F)(F)F)c(-c2ccc(C[C@H](NC(=O)c3c(F)cc(N4C[C@@H](C)OC[C@H]4C)cc3F)C(=O)O)c3cccnc23)c(=O)n1C [Example 249]
[B] CCOCc1cc(OC)c(-c2ccc(C[C@H](NC(=O)c3c(Cl)cc4[nH]c(Cc5ccccc5)cc4c3Cl)C(=O)O)c3cccnc23)c(OC)c1 [Example 297]
[C] CC[C@@H](Nc1cc(F)c(C(=O)N[C@@H](Cc2ccc(-c3nc(C)ccc3Cl)c3ncccc23)C(=O)O)c(F)c1)C(F)(F)F [Example 321]
Task item: Falling order of pEC50, please. Sort the labels as requested; that list is your answer.
Reply: A, B, C
(A: 8.52, B: 8.10, C: 7.80)

[P] Cc1c(Cl)cc(-c2ccc(C[C@H](NC(=O)c3c(F)cc(N4CCOC[C@@H]4C(F)(F)F)cc3F)C(=O)O)c3cccnc23)c(=O)n1C [Example 161]
[Q] N#Cc1ccc(-c2ccc(C[C@H](NC(=O)c3c(Cl)cc4nc(C5CC5)[nH]c4c3Cl)C(=O)O)c3cccnc23)c(Cl)c1 [Example 179]
Task item: Looking only at measured pEC50, which entry is lower, P or Q ? Pick one; state its label.
Reply: Q

[A] N#Cc1ccc(-c2ccc(C[C@H](NC(=O)c3c(F)cc(N[C@H](c4ccccc4)C(F)F)cc3F)C(=O)O)c3cccnc23)c(Cl)c1 [Example 324]
[B] CC[C@@H](Nc1cc(F)c(C(=O)N[C@@H](Cc2ccc(-c3c(C)c(F)cn(C)c3=O)c3ncccc23)C(=O)O)c(F)c1)C(F)(F)F [Example 199]
Task item: I would appreciate it if you could say which entry, A or B , has the lower pEC50 value. The response must carry the label of the picked entry.
Reply: A
